System: Streptococcus pyogenes SSI-9
PROTOCOL_NOTES: Antibacterial activity assay of bead-derived peptides (three concentrations)
Assay type: cell-based
Design: key: +++: inhibition by the 640-fold diluted peptide solution; ++: inhibition by the 160-fold diluted solution; +: inhibition by the 40-fold diluted solution; -: no inhibition
CONDITION: S. pyogenes, bead-derived peptide solution, three concentrations
Experimental: Each type of assay must be simplified and miniaturized to assess the activities of the library peptides in a 96-well format for the high-throughput screening. Next, the peptides in groups A and B were subjected to the antibacterial assay and structural determination. Three peptide concentrations were applied to evaluate the growth inhibition of S. pyogenes and determine the antibacterial activity. […] Finally, the structures of the peptides were determined. […]
Where a SMILES comes first, the peptide text is derived from it. [ ]: non-standard residue; d: D form. The star is where a group is joined. NHCH2CH2OH = OCCN*; For = O=C*
MEASURE_NAME: antibacterial activity

Example entries begin here.
[[record]]
molecule = "CC(C)C[C@@H](NC(=O)[C@H](C)NC(=O)CNC(=O)[C@@H](NC=O)C(C)C)C(=O)N[C@@H](C)C(=O)N[C@H](CC(C)C)C(=O)N[C@H](C(=O)N[C@@H](C(=O)N[C@@H](Cc1c[nH]c2ccccc12)C(=O)N[C@@H](C(=O)N[C@@H](Cc1c[nH]c2ccccc12)C(=O)N[C@H](CC(C)C)C(=O)N[C@@H](Cc1c[nH]c2ccccc12)C(=O)N[C@H](CC(C)C)C(=O)N[C@@H](Cc1c[nH]c2ccccc12)C(=O)NCCO)C(C)C)[C@H](C)O)C(C)C [compound 2158] (For-VGA[dL]A[dL]V[dT]W[dV]W[dL]W[dL]W-NHCH2CH2OH)"
endpoint_result = "-"

[[record]]
molecule = "CC(C)C[C@@H](NC(=O)[C@H](C)NC(=O)[C@H](NC(=O)[C@H](C)NC(=O)CNC(=O)[C@@H](NC=O)C(C)C)C(C)C)C(=O)N[C@H](C(=O)N[C@@H](C(=O)N[C@@H](Cc1c[nH]c2ccccc12)C(=O)N[C@@H](C(=O)N[C@@H](Cc1c[nH]c2ccccc12)C(=O)N[C@H](CC(C)C)C(=O)N[C@@H](Cc1c[nH]c2ccccc12)C(=O)N[C@@H](C(=O)N[C@@H](Cc1c[nH]c2ccccc12)C(=O)NCCO)C(C)C)C(C)C)C(C)C)C(C)C [compound 12950] (For-VGA[dV]A[dL]V[dV]W[dV]W[dL]W[dV]W-NHCH2CH2OH)"
endpoint_result = "+"

[[record]]
molecule = "CNC(=O)C[C@@H](NC(=O)[C@H](Cc1c[nH]c2ccccc12)NC(=O)[C@H](NC(=O)[C@H](Cc1c[nH]c2ccccc12)NC(=O)[C@@H](CC(C)C)NC(=O)[C@@H](NC(=O)[C@@H](CC(C)C)NC(=O)[C@H](C)NC(=O)[C@@H](CC(C)C)NC(=O)[C@H](C)NC(=O)CNC(=O)[C@@H](NC=O)C(C)C)C(C)C)C(C)C)C(=O)N[C@@H](Cc1c[nH]c2ccccc12)C(=O)N[C@@H](C(=O)N[C@@H](Cc1c[nH]c2ccccc12)C(=O)NCCO)[C@H](C)O [compound 3885] (For-VGA[dL]A[dL]V[dL]W[dV]W[dD](NHMe)W[dT]W-NHCH2CH2OH)"
endpoint_result = "-"

[[record]]
molecule = "CC(C)C[C@@H](NC(=O)[C@H](C)NC(=O)CNC(=O)[C@@H](NC=O)C(C)C)C(=O)N[C@@H](C)C(=O)N[C@H](CC(C)C)C(=O)N[C@H](C(=O)N[C@H](CC(C)C)C(=O)N[C@@H](Cc1c[nH]c2ccccc12)C(=O)N[C@H](CC(C)C)C(=O)N[C@@H](Cc1c[nH]c2ccccc12)C(=O)N[C@@H](C(=O)N[C@@H](Cc1c[nH]c2ccccc12)C(=O)N[C@@H](C(=O)N[C@@H](Cc1c[nH]c2ccccc12)C(=O)NCCO)[C@H](C)O)C(C)C)C(C)C [compound 7512] (For-VGA[dL]A[dL]V[dL]W[dL]W[dV]W[dT]W-NHCH2CH2OH)"
endpoint_result = "-"

[[record]]
molecule = "CC(C)C[C@@H](NC(=O)[C@H](C)NC(=O)CNC(=O)[C@@H](NC=O)C(C)C)C(=O)N[C@@H](C)C(=O)N[C@@H](C(=O)N[C@H](C(=O)N[C@H](CC(C)C)C(=O)N[C@@H](Cc1c[nH]c2ccccc12)C(=O)N[C@H](CC(C)C)C(=O)N[C@@H](Cc1c[nH]c2ccccc12)C(=O)N[C@H](CC(C)C)C(=O)N[C@@H](Cc1c[nH]c2ccccc12)C(=O)N[C@@H](C(=O)N[C@@H](Cc1c[nH]c2ccccc12)C(=O)NCCO)[C@H](C)O)C(C)C)C(C)C [compound 1975] (For-VGA[dL]A[dV]V[dL]W[dL]W[dL]W[dT]W-NHCH2CH2OH)"
endpoint_result = "+"

[[record]]
molecule = "CC(C)C[C@@H](NC(=O)[C@H](Cc1c[nH]c2ccccc12)NC(=O)[C@H](NC(=O)[C@H](Cc1c[nH]c2ccccc12)NC(=O)[C@@H](CC(C)C)NC(=O)[C@@H](NC(=O)[C@H](NC(=O)[C@H](C)NC(=O)[C@H](NC(=O)[C@H](C)NC(=O)CNC(=O)[C@@H](NC=O)C(C)C)[C@H](C)O)C(C)C)C(C)C)[C@H](C)O)C(=O)N[C@@H](Cc1c[nH]c2ccccc12)C(=O)N[C@@H](C(=O)N[C@@H](Cc1c[nH]c2ccccc12)C(=O)NCCO)C(C)C [compound 13245] (For-VGA[dT]A[dV]V[dL]W[dT]W[dL]W[dV]W-NHCH2CH2OH)"
endpoint_result = "-"

[[record]]
molecule = "CC(C)C[C@@H](NC(=O)[C@H](C)NC(=O)CNC(=O)[C@@H](NC=O)C(C)C)C(=O)N[C@@H](C)C(=O)N[C@H](CC(C)C)C(=O)N[C@H](C(=O)N[C@H](CC(C)C)C(=O)N[C@@H](Cc1c[nH]c2ccccc12)C(=O)N[C@@H](C(=O)N[C@@H](Cc1c[nH]c2ccccc12)C(=O)N[C@@H](C(=O)N[C@@H](Cc1c[nH]c2ccccc12)C(=O)N[C@H](CC(C)C)C(=O)N[C@@H](Cc1c[nH]c2ccccc12)C(=O)NCCO)C(C)C)[C@H](C)O)C(C)C [compound 196] (For-VGA[dL]A[dL]V[dL]W[dT]W[dV]W[dL]W-NHCH2CH2OH)"
endpoint_result = "-"


--- query ---
Task item: Name the reported antibacterial activity value associated with the molecule CC(C)C[C@@H](NC(=O)[C@@H](NC(=O)[C@H](NC(=O)[C@H](C)NC(=O)[C@H](NC(=O)[C@H](C)NC(=O)CNC(=O)[C@@H](NC=O)C(C)C)[C@H](C)O)C(C)C)C(C)C)C(=O)N[C@@H](Cc1c[nH]c2ccccc12)C(=O)N[C@@H](C(=O)N[C@@H](Cc1c[nH]c2ccccc12)C(=O)N[C@@H](C(=O)N[C@@H](Cc1c[nH]c2ccccc12)C(=O)N[C@@H](C(=O)N[C@@H](Cc1c[nH]c2ccccc12)C(=O)NCCO)C(C)C)C(C)C)[C@H](C)O [compound 1156] (For-VGA[dT]A[dV]V[dL]W[dT]W[dV]W[dV]W-NHCH2CH2OH)
Reply: -

These entries and their values trace back to paper PMC7531004.
